Reported values of OD600 after 10 h growth for individual entries
# Tested on: Escherichia coli IAI1
# protocolDetails: OD600 after 10 h growth (baseline-subtracted); higher = more bacterial growth (less inhibition)
# condition: 128 µg/mL
// keep it numeric: no unit symbol after the value

Q) Looking for the measured OD600 after 10 h growth of CC(=O)N[C@H](Cc1ccc2ccccc2c1)C(=O)N[C@H](Cc1ccc(Cl)cc1)C(=O)N[C@H](Cc1cccnc1)C(=O)N[C@@H](CO)C(=O)N[C@@H](Cc1ccc(O)cc1)C(=O)N[C@H](CCCNC(N)=O)C(=O)N[C@@H](CC(C)C)C(=O)N[C@@H](CCCNC(=N)N)C(=O)N1CCC[C@H]1C(=O)N[C@H](C)C(N)=O [Cetrorelix] , can you help?
A) 0.786

Please examine the following record next.
Q) Can you look up the measured OD600 after 10 h growth of Cc1c(Cl)c(C)[n+]([O-])c(Cl)c1-c1noc(-c2cc(O)c(O)c([N+](=O)[O-])c2)n1 [Opicapone] for me?
A) 0.767

----------
OD600 after 10 h growth: recorded values
# System: Pseudomonas aeruginosa PA14
# protocolDetails: OD600 after 10 h growth (baseline-subtracted); higher = more bacterial growth (less inhibition)
# condition: 0.2 µg/mL
Answer field: number only, no words.

Solved cases (3 shown):
Q) Bench note: what OD600 after 10 h growth did CC(C)(C)c1ccc(C(=O)CCCN2CCC(OC(c3ccccc3)c3ccccc3)CC2)cc1 show?
A) 0.742

Q) Please give the measured OD600 after 10 h growth for this compound: Cc1cn([C@H]2C[C@H](O)[C@@H](CO)O2)c(=O)[nH]c1=O
A) 0.899

Q) # OD600 after 10 h growth lookup, item CC1=C(C)C(=O)C(CCCCCCCCCC[P+](c2ccccc2)(c2ccccc2)c2ccccc2)=CC1=O
A) 0.757

Continuing:
Q) Dear colleague, I am looking for the recorded OD600 after 10 h growth of the following compound: Cc1c(Cl)c(C)[n+]([O-])c(Cl)c1-c1noc(-c2cc(O)c(O)c([N+](=O)[O-])c2)n1
A) 0.743

----------
# Tested on: Escherichia coli CFT073 (UPEC)
# protocolDetails: OD600 after 10 h growth (baseline-subtracted); higher = more bacterial growth (less inhibition)
# condition: 8 µg/mL
observationType: OD600 after 10 h growth

Q) Give recorded OD600 after 10 h growth with Escherichia coli CFT073 (UPEC) for the following compound: CC1=C(C)C(=O)C(CCCCCCCCCC[P+](c2ccccc2)(c2ccccc2)c2ccccc2)=CC1=O
A) 0.777

Q) OD600 after 10 h growth of COc1cc2c(cc1Cc1cccc(Cl)c1F)c(=O)c(C(=O)O)cn2[C@H](CO)C(C)C on Escherichia coli CFT073 (UPEC)?
A) 0.793

Q) Test system Escherichia coli CFT073 (UPEC); read-out OD600 after 10 h growth; what value for CC(C)(C)c1ccc(C(=O)CCCN2CCC(OC(c3ccccc3)c3ccccc3)CC2)cc1 ?
A) 0.803

Q) Form field: OD600 after 10 h growth recorded for CC(=O)N[C@H](Cc1ccc2ccccc2c1)C(=O)N[C@H](Cc1ccc(Cl)cc1)C(=O)N[C@H](Cc1cccnc1)C(=O)N[C@@H](CO)C(=O)N[C@@H](Cc1ccc(O)cc1)C(=O)N[C@H](CCCNC(N)=O)C(=O)N[C@@H](CC(C)C)C(=O)N[C@@H](CCCNC(=N)N)C(=O)N1CCC[C@H]1C(=O)N[C@H](C)C(N)=O with Escherichia coli CFT073 (UPEC) (enter value)
A) 0.806

Q) Enter reported OD600 after 10 h growth observed with Escherichia coli CFT073 (UPEC) for Cc1c(Cl)c(C)[n+]([O-])c(Cl)c1-c1noc(-c2cc(O)c(O)c([N+](=O)[O-])c2)n1
A) 1.02

Next:
Q) Lab note: need OD600 after 10 h growth with Escherichia coli CFT073 (UPEC) for entry Cc1cn([C@H]2C[C@H](O)[C@@H](CO)O2)c(=O)[nH]c1=O , please look it up.
A) 0.932

----------
OD600 after 10 h growth values by entry
# Tested on: Staphylococcus aureus Newman
# protocolDetails: OD600 after 10 h growth (baseline-subtracted); higher = more bacterial growth (less inhibition)
# condition: 4 µg/mL
Output: the number by itself.

Q) What value of OD600 after 10 h growth has been reported for the following molecule? CC(=O)N[C@H](Cc1ccc2ccccc2c1)C(=O)N[C@H](Cc1ccc(Cl)cc1)C(=O)N[C@H](Cc1cccnc1)C(=O)N[C@@H](CO)C(=O)N[C@@H](Cc1ccc(O)cc1)C(=O)N[C@H](CCCNC(N)=O)C(=O)N[C@@H](CC(C)C)C(=O)N[C@@H](CCCNC(=N)N)C(=O)N1CCC[C@H]1C(=O)N[C@H](C)C(N)=O
A) 1.11

Q) Please report the recorded OD600 after 10 h growth for Cc1cn([C@H]2C[C@H](O)[C@@H](CO)O2)c(=O)[nH]c1=O .
A) 1.39

Q) Recorded OD600 after 10 h growth of Cc1c(Cl)c(C)[n+]([O-])c(Cl)c1-c1noc(-c2cc(O)c(O)c([N+](=O)[O-])c2)n1 , please.
A) 1.18

***
Q) Form field: reported OD600 after 10 h growth of COc1cc2c(cc1Cc1cccc(Cl)c1F)c(=O)c(C(=O)O)cn2[C@H](CO)C(C)C
A) 0.309

Q) Look up OD600 after 10 h growth: CC1=C(C)C(=O)C(CCCCCCCCCC[P+](c2ccccc2)(c2ccccc2)c2ccccc2)=CC1=O
A) 0.0387

Q) Would you mind telling me what OD600 after 10 h growth value was observed for CC(C)(C)c1ccc(C(=O)CCCN2CCC(OC(c3ccccc3)c3ccccc3)CC2)cc1 ?
A) 1.05

----------
# Tested on: Escherichia coli IAI1
# protocolDetails: OD600 after 10 h growth (baseline-subtracted); higher = more bacterial growth (less inhibition)
# condition: 0.1 µg/mL
Readings of OD600 after 10 h growth for the listed compounds
In your answer, state the number alone without any accompanying words.

Below, each entry is followed by its recorded OD600 after 10 h growth result.
Q) // lookup OD600 after 10 h growth for Cc1cn([C@H]2C[C@H](O)[C@@H](CO)O2)c(=O)[nH]c1=O [Thymidine]
A) 0.814

Q) Dear colleague, I am looking for the recorded OD600 after 10 h growth of the following compound: CC(=O)N[C@H](Cc1ccc2ccccc2c1)C(=O)N[C@H](Cc1ccc(Cl)cc1)C(=O)N[C@H](Cc1cccnc1)C(=O)N[C@@H](CO)C(=O)N[C@@H](Cc1ccc(O)cc1)C(=O)N[C@H](CCCNC(N)=O)C(=O)N[C@@H](CC(C)C)C(=O)N[C@@H](CCCNC(=N)N)C(=O)N1CCC[C@H]1C(=O)N[C@H](C)C(N)=O [Cetrorelix]
A) 0.865

Q) # OD600 after 10 h growth lookup, item CC1=C(C)C(=O)C(CCCCCCCCCC[P+](c2ccccc2)(c2ccccc2)c2ccccc2)=CC1=O [Visomitin]
A) 0.805

---
Q) Look up OD600 after 10 h growth: COc1cc2c(cc1Cc1cccc(Cl)c1F)c(=O)c(C(=O)O)cn2[C@H](CO)C(C)C [Elvitegravir]
A) 0.803

Q) // returns reported OD600 after 10 h growth for input Cc1c(Cl)c(C)[n+]([O-])c(Cl)c1-c1noc(-c2cc(O)c(O)c([N+](=O)[O-])c2)n1 [Opicapone]
A) 0.811

Q) I am curious: what OD600 after 10 h growth value has been reported for CC(C)(C)c1ccc(C(=O)CCCN2CCC(OC(c3ccccc3)c3ccccc3)CC2)cc1 [Ebastine] ?
A) 0.807

----------
The following molecules are shown together with reported OD600 after 10 h growth values.
# System: Klebsiella pneumoniae MKP103
# protocolDetails: OD600 after 10 h growth (baseline-subtracted); higher = more bacterial growth (less inhibition)
# condition: 8 µg/mL

In the examples that follow, each entry is paired with its recorded OD600 after 10 h growth.
Q) Reported OD600 after 10 h growth, molecule Cc1cn([C@H]2C[C@H](O)[C@@H](CO)O2)c(=O)[nH]c1=O : ____
A) 0.838

Q) Item CC(=O)N[C@H](Cc1ccc2ccccc2c1)C(=O)N[C@H](Cc1ccc(Cl)cc1)C(=O)N[C@H](Cc1cccnc1)C(=O)N[C@@H](CO)C(=O)N[C@@H](Cc1ccc(O)cc1)C(=O)N[C@H](CCCNC(N)=O)C(=O)N[C@@H](CC(C)C)C(=O)N[C@@H](CCCNC(=N)N)C(=O)N1CCC[C@H]1C(=O)N[C@H](C)C(N)=O has what recorded OD600 after 10 h growth?
A) 0.707

Q) Param item = CC1=C(C)C(=O)C(CCCCCCCCCC[P+](c2ccccc2)(c2ccccc2)c2ccccc2)=CC1=O ; retrieve measured OD600 after 10 h growth.
A) 0.697

Q) Form field: reported OD600 after 10 h growth of CC(C)(C)c1ccc(C(=O)CCCN2CCC(OC(c3ccccc3)c3ccccc3)CC2)cc1
A) 0.678

Q) Name the recorded OD600 after 10 h growth for Cc1c(Cl)c(C)[n+]([O-])c(Cl)c1-c1noc(-c2cc(O)c(O)c([N+](=O)[O-])c2)n1 .
A) 0.839

Further cases:
Q) What value of OD600 after 10 h growth has been recorded for this entry: COc1cc2c(cc1Cc1cccc(Cl)c1F)c(=O)c(C(=O)O)cn2[C@H](CO)C(C)C
A) 0.681
